experiment: acute toxicity (LD50, 7th day after application); format: in vivo, mouse; conditions: mouse, in vivo, po, male NMRI-mice, mortality on 7th day; read-out: LD50 p.o.
Where a name gives a salt, the structure may show the parent alone.
metric_name: LD50 at 168 h (µmol/kg)
Please reply with the bare figure in µmol/kg and do not write the unit itself.

>  <compound>
CCC1C2CC3C4N(C)c5ccc(Br)cc5C45CC(C2C5O)[N+]3(CC(O)CN2CCCCC2)C1O (stereo not shown)

>  <metric_name>
LD50 at 168 h

>  <observed_value>
1190

$$$$
>  <compound>
CCC[N+]12C(O)C(CC)C3CC1C1N(C)c4ccccc4C14CC2C3C4O (stereo not shown) [Neo-Gilurytmal, Nb -propylajmalinium hydrogen tartrate, reference compound]

>  <metric_name>
LD50 at 168 h

>  <observed_value>
65

$$$$

From here, focus on the item given below.
// query Form field: reported LD50 at 168 h of CCC1C2CC3C4N(C)c5ccc(Br)cc5C45CC(C2C5O)[N+]3(C)C1O (stereo not shown)
// result 1910

====

Recorded measurements of IC25, one per entry
system: isolated left atria of female guinea pigs; experiment: functional refractory period (FRP) and contraction force (CF) in isolated left atria, double stimulus method of Govier; design: species or system guinea pig; settings: Cavia porcellus, 0.3 h, isolated guinea pig left atria, 18 minutes after application; read-out: CF (concentration reducing contraction force to 75% of starting value)
Structures can show the parent of a compound that is named as a salt.
Provide the reading as a plain figure in µM.

>  <molecule>
CCC[N+]12C(O)C(CC)C3CC1C1N(C)c4ccc(Br)cc4C14CC2C3C4O (centres unmarked)

>  <metric_name>
IC25

>  <observed_value>
4.7

$$$$

// query What value of IC25 has been recorded for this entry: CCC1C2CC3C4N(C)c5ccc(Br)cc5C45CC(C2C5O)[N+]3(CC(O)CN2CCCCC2)C1O (centres unmarked)
// result 3.4

// query Next molecule up: CCC[N+]12C(O)C(CC)C3CC1C1N(C)c4ccccc4C14CC2C3C4O (centres unmarked) [Neo-Gilurytmal, Nb -propylajmalinium hydrogen tartrate, reference compound]
// result 0.26

// query And for CCCCCC[N+]12C(O)C(CC)C3CC1C1N(C)c4ccc(Br)cc4C14CC2C3C4O (centres unmarked) ?
// result 2

// query Ok, now CCC1C2CC3C4N(C)c5ccc(Br)cc5C45CC(C2C5O)[N+]3(C)C1O (centres unmarked)
// result 20.2

====

tested on: male NMRI-mice; assay: minimum symptom dose (procedure of Campbell and Richter); format: in vivo, mouse; details: i.p., changes in behavior in 2 out of 3 mice
Counter-ions that a name gives are not always drawn.
metric_name: Min. Symptom-dose (µmol/kg)
# value in µmol/kg; strip the unit string

>  <compound>
CCC1C2CC3C4N(C)c5ccc(Br)cc5C45CC(C2C5O)[N+]3(C)C1O (stereo not drawn) [Example 1.b]

>  <observed_value>
11

$$$$
>  <compound>
CCC1C2CC3C4N(C)c5ccc(Br)cc5C45CC(C2C5O)[N+]3(CC(O)CN2CCCCC2)C1O (stereo not drawn) [Example 8]

>  <observed_value>
59

$$$$
>  <compound>
CCC[N+]12C(O)C(CC)C3CC1C1N(C)c4ccccc4C14CC2C3C4O (stereo not drawn) [Neo-Gilurytmal, Nb -propylajmalinium hydrogen tartrate, reference compound]

>  <observed_value>
12

$$$$
>  <compound>
CCC[N+]12C(O)C(CC)C3CC1C1N(C)c4ccc(Br)cc4C14CC2C3C4O (stereo not drawn) [Example 2.b]

>  <observed_value>
42

$$$$
>  <compound>
CCC[N+]12C(O)C(CC)C3CC1C1N(C)c4ccc(Br)cc4C14CC2C3C4O (stereo not drawn) [Example 12.b]

>  <observed_value>
10

$$$$

// query Recorded Min. Symptom-dose for CCCCCC[N+]12C(O)C(CC)C3CC1C1N(C)c4ccc(Br)cc4C14CC2C3C4O (stereo not drawn) [Example 4.b] , please?
// result 39

====

assay: acute toxicity (LD50, 7th day after application); type: in vivo, mouse; conditions: mouse, in vivo, ip, intraperitoneal, male NMRI-mice, mortality on 7th day; read-out: LD50 i.p.
Structures can show the parent of a compound that is named as a salt.
Parameter: LD50 at 168 h. Scope: all listed entries.
// units = µmol/kg; emit number, no label

Recorded LD50 at 168 h, per entry:
>  <molecule>
CCC[N+]12C(O)C(CC)C3CC1C1N(C)c4ccccc4C14CC2C3C4O (centres unmarked) [Neo-Gilurytmal, Nb -propylajmalinium hydrogen tartrate, reference compound]

>  <LD50 at 168 h / µmol/kg>
41

$$$$
>  <molecule>
CCCCCC[N+]12C(O)C(CC)C3CC1C1N(C)c4ccc(Br)cc4C14CC2C3C4O (centres unmarked)

>  <LD50 at 168 h / µmol/kg>
112

$$$$

// query I have this molecule here, CCC1C2CC3C4N(C)c5ccc(Br)cc5C45CC(C2C5O)[N+]3(C)C1O (centres unmarked) , and I need its recorded LD50 at 168 h.
// result 325

// query Another molecule to look at: CCC[N+]12C(O)C(CC)C3CC1C1N(C)c4ccc(Br)cc4C14CC2C3C4O (centres unmarked)
// result 101

// query Another molecule to look at: CCC1C2CC3C4N(C)c5ccc(Br)cc5C45CC(C2C5O)[N+]3(CC(O)CN2CCCCC2)C1O (centres unmarked)
// result 169
